Sourced from patent US12624112

Target: T1, Human ST2-his (human, UniProt Q01638-2 19-328, limits assumed)
T1 construct: Expressed in CHO-K1; The printed range starts at Met1; also called human ST2 fused with a 6-histidine tag at the C-terminus
T1 sequence: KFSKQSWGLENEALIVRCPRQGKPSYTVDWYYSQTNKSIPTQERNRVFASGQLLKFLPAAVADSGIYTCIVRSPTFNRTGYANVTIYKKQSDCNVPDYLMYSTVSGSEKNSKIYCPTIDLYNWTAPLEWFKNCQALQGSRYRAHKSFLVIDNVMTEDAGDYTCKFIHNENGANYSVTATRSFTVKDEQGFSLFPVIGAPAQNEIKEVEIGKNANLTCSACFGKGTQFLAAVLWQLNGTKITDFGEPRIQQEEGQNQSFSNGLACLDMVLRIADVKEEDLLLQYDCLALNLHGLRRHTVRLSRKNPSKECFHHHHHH
Experiment: SPR Biacore X100, antibody captured on protein A chip, human ST2-his injected, dissociation at pH 5.5
measurement.kind: koff (s⁻¹)
The reply should contain only the number, in s⁻¹.

stdin: Identify measured koff associated with 5888-153-H3L1 (antibody, human IgG4 S228P, kappa, V domains shown, Humanized antibody) VH: QVQLVQSGAEVKKPGASVKVSCKASGYTFTDYELHWVRQAPGQGLEWMGTIDPETGDTVYNQKFKARVTMTADKSTSTAYMELSSLRSEDTAVYYCTRAFYNDYDDAFAYWGQGTLVTVSS VL: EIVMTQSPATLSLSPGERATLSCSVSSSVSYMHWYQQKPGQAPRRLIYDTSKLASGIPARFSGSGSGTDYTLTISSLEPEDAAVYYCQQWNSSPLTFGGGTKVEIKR
stdout: 0.000232

stdin: Identify the reported koff for the following entry. Control antibody CNTO7160 (antibody, human IgG4 S228P, kappa, V domains shown, Known anti-ST2 control antibody) VH: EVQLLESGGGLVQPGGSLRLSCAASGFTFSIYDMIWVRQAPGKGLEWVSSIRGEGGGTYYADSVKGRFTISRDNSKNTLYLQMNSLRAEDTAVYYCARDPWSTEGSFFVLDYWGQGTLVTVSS VL: EIVLTQSPATLSLSPGERATLSCRASQSVDDDLAWYQQKPGQAPRLLIYDASNRATGIPARFSGSGSGTDFTLTISSLEPEDFAVYYCQQYITAPLTFGQGTKVEIKR
stdout: 0.000267

In the following, a different binder is considered.
stdin: Provide one value: measured koff of 5888-116-H0L1 (antibody, human IgG4 S228P, kappa, V domains shown, Humanized antibody) VH: QVQLVQSGAEVKKPGASVKVSCKASGYTFTDSEMYWVRQAPGQGLEWMGAIDPETGDTAFNQKFKGRVTMTRDTSTSTVYMELSSLRSEDTAVYYCARAFDNDNDDGFAYWGQGTMVTVSS VL: DIQMTQSPSSLSASVGDRVTITCSASSSVNYMHWYQQKPGKAPKRLIYDTSKLASGVPSRFSGSGSGTDYTFTISSLQPEDAATYYCQQWSSNPLTFGQGTKLEIKR
stdout: 0.0014
